- System: human SMAD7 mRNA
- protocol: Antisense inhibition of human SMAD7 mRNA expression in Hep3B cells by 3-10-3 cEt gapmers, 10,000 nM, electroporation (Example 2)
- Type: cell-based
- runParameters: SMAD7 mRNA, Hep3B cells, 10,000 nM antisense oligonucleotide, electroporation, approximately 24 hours, primer probe set RTS5062, relative to untreated control cells
- Experimental: Antisense oligonucleotides were designed to target human SMAD7 mRNA and were tested for their effects on SMAD7 mRNA expression in vitro. […] After a treatment period of approximately 24 hours, RNA was isolated from the cells and SMAD7 mRNA levels were measured by quantitative real-time PCR. […] SMAD7 mRNA levels were adjusted according to total RNA content, as measured by RIBOGREEN®. […]
Strand notation (5' to 3'): a small letter for the sugar, then the base; units joined by * are phosphorothioate-linked, units joined directly phosphodiester-linked; [ ] holds rarer units or linkages, { } end groups; capitals alone tell only the bases. k = constrained ethyl (cEt); [5mC] = 5-methylcytosine; d = 2'-deoxy (DNA)
Classify as follows. Reported % Inhibition greater than or equal to 40%: Y. Reported % Inhibition below: N.

- substance: "772535 (antisense k[5mC]*k[5mC]*kG*d[5mC]*dA*d[5mC]*dA*d[5mC]*d[5mC]*dA*dT*dG*dA*kA*kG*kA) [compound 772535]"
  labelClass: "N"
- substance: "829748 (antisense k[5mC]*kT*k[5mC]*dG*d[5mC]*d[5mC]*dG*d[5mC]*d[5mC]*dG*dG*dG*d[5mC]*kG*k[5mC]*kA) [compound 829748]"
  labelClass: "Y"
- substance: "790537 (kA*kG*k[5mC]*dA*dG*d[5mC]*dA*dA*dA*dG*dT*dA*dG*kT*kT*kT; antisense) [compound 790537]"
  labelClass: "N"
- substance: "829766 (antisense k[5mC]*kT*kG*d[5mC]*d[5mC]*dG*d[5mC]*dT*d[5mC]*d[5mC]*dT*dT*d[5mC]*kA*kG*kT) [compound 829766]"
  labelClass: "N"
- substance: "829787 (antisense kG*kG*kA*dA*dT*dG*d[5mC]*d[5mC]*dT*dG*dA*dG*dA*kT*k[5mC]*k[5mC]) [compound 829787]"
  labelClass: "N"
- substance: "798781 (CGTAAGATTCACAGCA; 3-10-3 cEt gapmer, further chemistry not given here) [compound 798781]"
  labelClass: "Y"
- substance: "790754 (k[5mC]*kT*kA*dA*dG*d[5mC]*dT*dA*d[5mC]*dT*dT*dG*dG*kT*kT*kT; antisense) [compound 790754]"
  labelClass: "N"
- substance: "772582 (k[5mC]*kT*kG*dA*dA*dA*dG*d[5mC]*d[5mC]*d[5mC]*d[5mC]*d[5mC]*d[5mC]*kA*kG*kG; antisense) [compound 772582]"
  labelClass: "N"
- substance: "799566 (kG*kA*kG*dT*dA*dA*dA*d[5mC]*dA*dA*dT*dA*d[5mC]*k[5mC]*k[5mC]*kT; antisense) [compound 799566]"
  labelClass: "Y"
- substance: "829778 (antisense kG*kG*kA*dG*d[5mC]*dG*dA*dG*dT*dA*dG*dG*dA*k[5mC]*kG*kA) [compound 829778]"
  labelClass: "Y"
- substance: "790747 (kG*kT*kA*d[5mC]*dA*dA*dT*d[5mC]*dT*d[5mC]*d[5mC]*dT*dG*kG*kA*kA; antisense) [compound 790747]"
  labelClass: "N"
